assay: physchem; conditions: organic solvent or mixture
METRIC_NAME: solubility (mM)

> print(dat)
                            compound.string  endpoint.value
1  O=C(Nc1ccccc1C(=O)O)c1ccc(Oc2ccc(C(=O)Nc3ccccc3C(=O)O)cc2)cc1             100
2  COc1ccc(C(=O)Nc2ccc(Cc3ccc(NC(=O)c4ccc(OC)c(OC)c4)c(C(=O)O)c3)cc2C(=O)O)cc1OC              15
3  O=C(O)c1cc(Nc2ccccc2C(=O)O)nc(Nc2ccccc2C(=O)O)n1              50

* * *

molecular target: murine PGP (Mus musculus, UniProt Q8CHP8); test: IC50 determination, murine PGP, pNPP dephosphorylation
Sequence (Q8CHP8 whole entry): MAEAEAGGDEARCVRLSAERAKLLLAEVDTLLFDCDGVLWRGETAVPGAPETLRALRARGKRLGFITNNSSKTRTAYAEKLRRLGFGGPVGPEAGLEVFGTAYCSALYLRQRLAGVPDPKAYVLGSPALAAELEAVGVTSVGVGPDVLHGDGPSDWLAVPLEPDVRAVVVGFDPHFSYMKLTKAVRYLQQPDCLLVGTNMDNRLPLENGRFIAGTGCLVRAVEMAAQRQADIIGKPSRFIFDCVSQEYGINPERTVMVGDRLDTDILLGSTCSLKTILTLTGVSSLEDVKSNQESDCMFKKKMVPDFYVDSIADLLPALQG
pIC50: −log10 of the molar value.
METRIC_NAME: pIC50

> print(dat)
                            compound.string  endpoint.value
1  COc1ccc(C(=O)Nc2ccc(Cc3ccc(NC(=O)c4ccc(OC)c(OC)c4)c(C(=O)O)c3)cc2C(=O)O)cc1OC            5.32
2  O=C(Nc1ccccc1C(=O)O)c1ccc(Oc2ccc(C(=O)Nc3ccccc3C(=O)O)cc2)cc1            6.11
3  O=C(O)c1cc(Nc2ccccc2C(=O)O)nc(Nc2ccccc2C(=O)O)n1            4.87
